Test: Pharmacokinetic profiles in monkeys (plasma 5'-DFUR after oral administration)
Type: in vivo
Conditions: cynomolgous monkeys, metabolite 5'-DFUR in plasma
PROPERTY_NAME: Plasma 5'-DFUR AUC (ng·h/mL)
Just the number in ng·h/mL, nothing appended.

Use the examples below as a reference point.
{"columns": ["SMILES_NOTATION", "Plasma 5'-DFUR AUC, ng·h/mL"],
 "data": [
  ["C[C@H]1O[C@@H](n2cc(F)c(NC(=O)OCCC(C)(C)C)nc2=O)[C@H](O)[C@@H]1O", 2090],
  ["CCCCOC(=O)Nc1nc(=O)n([C@@H]2O[C@H](C)[C@@H](O)[C@H]2O)cc1F", 2060],
  ["CCC(CC)COC(=O)Nc1nc(=O)n([C@@H]2O[C@H](C)[C@@H](O)[C@H]2O)cc1F", 2890],
  ["C[C@H]1O[C@@H](n2cc(F)c(NC(=O)OCCc3ccccc3)nc2=O)[C@H](O)[C@@H]1O", 2660],
  ["CCCCCCOC(=O)Nc1nc(=O)n([C@@H]2O[C@H](C)[C@@H](O)[C@H]2O)cc1F", 1960]
]}

Proceeding to the next compound to report its Plasma 5'-DFUR AUC.
Read off the recorded Plasma 5'-DFUR AUC for CCCCCOC(=O)Nc1nc(=O)n([C@@H]2O[C@H](C)[C@@H](O)[C@H]2O)cc1F 2900

----------
Catalogue of compounds with associated Acylamidase activity, Monkey Liver
Test system: monkey liver acylamidase
Assay: Susceptibility to monkey liver acylamidase (crude liver extract, 5'-DFCR formed by HPLC)
Assay type: in vitro ADME
Details: tetrahydrouridine 0.4 mM, 37° C., 60 min
Method: The N^4 -(substituted-oxycarbonyl)-5'-DFCRs of the invention were incubated with crude extracts of monkey and human liver in the presence of an inhibitor of cytidine deaminase, tetrahydrouridine (0.4 mM) at 37° C. for 60 min. Thereafter, the product 5'-DFCR was separated by HPLC and the enzyme susceptibility was calculated from the amount of the product.
Just the number in nmol/mg protein/hr, nothing appended.

Use the examples below as a reference point.
{"columns": ["COMPOUND", "Acylamidase activity, Monkey Liver (nmol/mg protein/hr)"],
 "data": [
  ["CCCCC(CC)COC(=O)Nc1nc(=O)n([C@@H]2O[C@H](C)[C@@H](O)[C@H]2O)cc1F (stereo partly shown)", 20],
  ["C[C@H]1O[C@@H](n2cc(F)c(NC(=O)OCCc3ccccc3)nc2=O)[C@H](O)[C@@H]1O", 22],
  ["CCCCCCOC(=O)Nc1nc(=O)n([C@@H]2O[C@H](C)[C@@H](O)[C@H]2O)cc1F", 47]
]}

Read off the recorded Acylamidase activity, Monkey Liver for C[C@H]1O[C@@H](n2cc(F)c(NC(=O)OCC(C)(C)C)nc2=O)[C@H](O)[C@@H]1O 25

----------
System: CXF280 Human Colon Carcinoma
Test: Antitumor testing against human colon cancer xenograft CXF280
Type: in vivo, BALB/c nu/nu mice
Details: Mus musculus, po, Exp. 2, 2.25 mmol/kg/day x 21, oral; read-out: % Growth inhibition
PROPERTY_NAME: inhibition in vivo at 2.25 mmol/kg/day
Field note: include the unit after the figure.

Read off the recorded inhibition in vivo at 2.25 mmol/kg/day for CCCOC(=O)Nc1nc(=O)n([C@@H]2O[C@H](C)[C@@H](O)[C@H]2O)cc1F 93%

Read off the recorded inhibition in vivo at 2.25 mmol/kg/day for CC(C)CCOC(=O)Nc1nc(=O)n([C@@H]2O[C@H](C)[C@@H](O)[C@H]2O)cc1F 100%

Read off the recorded inhibition in vivo at 2.25 mmol/kg/day for CCCCCCCOC(=O)Nc1nc(=O)n([C@@H]2O[C@H](C)[C@@H](O)[C@H]2O)cc1F 103%

Read off the recorded inhibition in vivo at 2.25 mmol/kg/day for CCCCOC(=O)Nc1nc(=O)n([C@@H]2O[C@H](C)[C@@H](O)[C@H]2O)cc1F 100%
